# Test target: Acetylcholinesterase (Electrophorus electricus) (UniProt O42275)
# Sequence (O42275 24-633 limits assumed): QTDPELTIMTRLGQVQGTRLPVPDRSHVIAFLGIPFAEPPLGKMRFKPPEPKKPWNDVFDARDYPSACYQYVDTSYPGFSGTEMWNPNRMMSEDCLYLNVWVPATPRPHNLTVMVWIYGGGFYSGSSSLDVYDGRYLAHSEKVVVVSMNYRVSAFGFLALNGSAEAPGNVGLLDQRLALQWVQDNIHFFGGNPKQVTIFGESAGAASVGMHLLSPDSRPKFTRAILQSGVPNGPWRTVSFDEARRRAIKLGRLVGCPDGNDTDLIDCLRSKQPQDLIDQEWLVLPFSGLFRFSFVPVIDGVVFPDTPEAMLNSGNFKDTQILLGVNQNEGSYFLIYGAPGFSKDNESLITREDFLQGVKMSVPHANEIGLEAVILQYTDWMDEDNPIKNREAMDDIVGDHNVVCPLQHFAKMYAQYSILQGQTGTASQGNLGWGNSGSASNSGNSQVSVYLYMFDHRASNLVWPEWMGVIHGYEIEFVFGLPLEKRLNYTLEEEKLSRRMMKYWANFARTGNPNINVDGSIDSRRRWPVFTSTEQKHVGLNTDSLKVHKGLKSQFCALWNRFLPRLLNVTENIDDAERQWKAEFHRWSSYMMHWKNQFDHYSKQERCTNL
# Method: Inhibition of electric eel AChE at 100 uM preincubated for 5 mins by Ellman's method
The source made the active and inactive calls. The rule behind the calls is not given here.

# Record smiles, inhibition
records = [
    ("CCCCNC(=O)Oc1cccc(CC(=O)N2CCN(Cc3ccccc3)CC2)c1", "inactive"),
    ("CN(C)C(=O)Oc1cccc(CC(=O)N2CCN(Cc3ccccc3)CC2)c1", "inactive"),
    ("CC(C)NC(=O)Oc1ccc(CC(=O)NC2CCN(Cc3ccccc3)CC2)cc1", "19.2%"),
    ("CCCNC(=O)Oc1ccc(CC(=O)NC2CCN(Cc3ccccc3)CC2)cc1", "33.8%"),
    ("CN(C)C(=O)Oc1ccc(CC(=O)N2CCN(Cc3ccccc3)CC2)cc1", "inactive"),
    ("O=C(Cc1cccc(O)c1)N1CCN(Cc2ccccc2)CC1", "inactive"),
    ("CCCCNC(=O)Oc1ccc(CC(=O)N2CCN(Cc3ccccc3)CC2)cc1", "inactive"),
    ("CCNC(=O)Oc1ccc(CC(=O)N2CCN(Cc3ccccc3)CC2)cc1", "inactive"),
    ("CCNC(=O)Oc1ccc(CC(=O)NC2CCN(Cc3ccccc3)CC2)cc1", "23.4%"),
    ("CC(C)NC(=O)Oc1cccc(CC(=O)NC2CCN(Cc3ccccc3)CC2)c1", "34.9%"),
    ("O=C(Cc1ccc(O)cc1)N1CCN(Cc2ccccc2)CC1", "inactive"),
]
